Test System: EP1 receptor (Mus musculus)
Construct: expressed in transfected cells; host or cells: CHO cells
Sequence (P35375 1-405): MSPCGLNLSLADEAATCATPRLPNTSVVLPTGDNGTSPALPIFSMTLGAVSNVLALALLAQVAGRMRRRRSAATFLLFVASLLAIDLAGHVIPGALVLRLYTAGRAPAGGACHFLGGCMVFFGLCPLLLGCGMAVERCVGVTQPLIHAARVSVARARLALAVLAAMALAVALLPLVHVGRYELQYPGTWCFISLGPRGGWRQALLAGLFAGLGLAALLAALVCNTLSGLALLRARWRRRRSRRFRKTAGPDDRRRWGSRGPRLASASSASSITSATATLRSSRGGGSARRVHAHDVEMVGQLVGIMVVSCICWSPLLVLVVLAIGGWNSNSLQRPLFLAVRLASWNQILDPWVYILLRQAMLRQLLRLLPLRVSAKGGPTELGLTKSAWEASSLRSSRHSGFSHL
Experimental Protocol: Binding assay using cell expressing the prostanoid receptor subtypes, [3H]-PGE2 competition on CHO membrane fraction
Experimental Context: mouse EP1, [3H]-PGE2 2.5 nM, pH 6.0
Measurement Name: Ki (µM)
Give bare numbers, in µM.

Ki lookup needed for CC(C(=O)Nc1ccccc1Cc1ccccc1C(=O)O)c1ccc(OCc2ccccc2)cc1 (stereo not shown) [2(1)] , thanks.
1.5

---

Test System: EP2 receptor (Mus musculus, UniProt Q62053)
Sequence (Q62053 whole entry): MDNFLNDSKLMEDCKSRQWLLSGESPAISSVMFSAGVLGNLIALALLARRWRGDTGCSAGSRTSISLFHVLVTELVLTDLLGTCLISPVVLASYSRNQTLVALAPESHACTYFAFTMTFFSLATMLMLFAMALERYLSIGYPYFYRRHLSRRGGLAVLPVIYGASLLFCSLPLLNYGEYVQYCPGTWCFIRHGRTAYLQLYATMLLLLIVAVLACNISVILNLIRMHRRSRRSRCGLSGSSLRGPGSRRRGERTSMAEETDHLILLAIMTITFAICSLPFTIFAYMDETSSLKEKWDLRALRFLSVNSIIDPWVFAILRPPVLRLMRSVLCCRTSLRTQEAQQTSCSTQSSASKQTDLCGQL
Measurement Name: Ki (µM)
Answers are plain numbers, in µM.

Ki lookup needed for CC(C(=O)Nc1ccccc1Cc1ccccc1C(=O)O)c1ccc(OCc2ccccc2)cc1 (stereo not shown) , thanks.
8
